B1: ZNF263 (parent)
chain: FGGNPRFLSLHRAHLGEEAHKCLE

- Variants of: B1
- protocol_details: protein stability index of a GFP-peptide fusion (GPS, HEK-293T) (PSI 1-6); higher = more stable;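 also: lentivirally expressed fusions sorted by FACS into six bins by GFP to DsRed ratio, PSI derived from sequencing read proportions per bin multiplied by bin number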
- details: c terminus: a fixed tail appended
Label scheme for protein stability index: lower than 2 is 0, 2 and above is 1.

Check out these entries, answers already filled in.
C22N : 1
L15V : 0
A19M : 1
C22F : 0
A13V : 0

### Prompt Check if protein stability index >= 2 (inclusive). Item: P5S
### Response 0

### Prompt Check this variant for protein stability index at or above 2: P5E
### Response 1
